Origin of values: patent US20210238260

- Target under test: Factor X, P00742
- Sequence (P00742 whole entry, looked up): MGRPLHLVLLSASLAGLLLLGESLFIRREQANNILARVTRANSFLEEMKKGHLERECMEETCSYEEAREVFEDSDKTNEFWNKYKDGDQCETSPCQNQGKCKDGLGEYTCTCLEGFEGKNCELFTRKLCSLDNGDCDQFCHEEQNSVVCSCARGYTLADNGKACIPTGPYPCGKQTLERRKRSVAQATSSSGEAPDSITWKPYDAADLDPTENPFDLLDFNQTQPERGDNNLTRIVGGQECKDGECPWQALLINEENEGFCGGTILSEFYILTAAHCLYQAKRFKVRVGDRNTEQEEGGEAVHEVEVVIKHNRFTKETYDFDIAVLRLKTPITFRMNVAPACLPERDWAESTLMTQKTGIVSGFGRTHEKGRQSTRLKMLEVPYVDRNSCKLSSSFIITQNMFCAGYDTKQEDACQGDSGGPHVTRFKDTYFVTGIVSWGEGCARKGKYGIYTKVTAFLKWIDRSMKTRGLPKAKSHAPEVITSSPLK
Provide the reported % of WT kcat/KM of each item.
Response body: numeric value in %, unit text excluded.

## Input Read off the recorded % of WT kcat/KM for FIXa-K247N/N249S/R338E/R403E/E410N (protein) chain 1: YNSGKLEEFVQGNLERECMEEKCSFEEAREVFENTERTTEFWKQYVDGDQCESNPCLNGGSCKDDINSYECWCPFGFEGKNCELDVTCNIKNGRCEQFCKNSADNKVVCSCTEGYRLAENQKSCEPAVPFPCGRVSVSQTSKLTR chain 2: VVGGEDAKPGQFPWQVVLNGKVDAFCGGSIVNEKWIVTAAHCVETGVKITVVAGEHNIEETEHTEQNRSVIRIIPHHNYNAAINKYNHDIALLELDEPLVLNSYVTPICIADKEYTNIFLKFGSGYVSGWGRVFHKGRSALVLQYLRVPLVDRATCLESTKFTIYNNMFCAGFHEGGRDSCQGDSGGPHVTEVEGTSFLTGIISWGEECAMKGKYGIYTKVSEYVNWIKNKTKLT
## Output 422

## Input Provide measured % of WT kcat/KM value, entry: FIXa-K247N/N249S/R318Y/R338E/E410N (protein) chain 1: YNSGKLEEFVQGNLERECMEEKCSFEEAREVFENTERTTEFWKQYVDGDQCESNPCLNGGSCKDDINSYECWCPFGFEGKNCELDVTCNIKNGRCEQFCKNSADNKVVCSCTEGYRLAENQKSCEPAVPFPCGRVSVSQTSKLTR chain 2: VVGGEDAKPGQFPWQVVLNGKVDAFCGGSIVNEKWIVTAAHCVETGVKITVVAGEHNIEETEHTEQNRSVIRIIPHHNYNAAINKYNHDIALLELDEPLVLNSYVTPICIADKEYTNIFLKFGSGYVSGWGRVFHKGYSALVLQYLRVPLVDRATCLESTKFTIYNNMFCAGFHEGGRDSCQGDSGGPHVTEVEGTSFLTGIISWGEECAMKGKYGIYTKVSRYVNWIKNKTKLT
## Output 516
